# Measured on: Met kinase domain (GST fusion protein) (Homo sapiens)
# Construct: Purified GST fusion protein containing the Met kinase domain
# Sequence (P08581 1078-1345 limits assumed): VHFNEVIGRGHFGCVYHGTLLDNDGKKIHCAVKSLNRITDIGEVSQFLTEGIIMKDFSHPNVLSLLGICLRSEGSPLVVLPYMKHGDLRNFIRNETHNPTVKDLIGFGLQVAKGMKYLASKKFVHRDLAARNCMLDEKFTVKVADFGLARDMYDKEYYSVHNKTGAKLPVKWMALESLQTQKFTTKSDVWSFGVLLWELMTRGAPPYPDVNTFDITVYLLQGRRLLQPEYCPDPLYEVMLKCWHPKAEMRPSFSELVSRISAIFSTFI
# Experiment: Met transphosphorylation assay (ELISA, poly(glu-tyr) substrate);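 also: Cell-free ELISA with plate-bound poly(Glu:Tyr 4:1) phosphorylated by GST-fused Met kinase domain plus ATP and Mn2+, phosphotyrosine detected by anti-phosphotyrosine antibody with HRP and ABTS read-out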
# Format: biochemical
# Condition label: plain numbers in column Met IC50 (μM) of Table 2; read-out: Met IC50

| Molecule | Display unit | Measurement qualifier | IC50 |
| --- | --- | --- | --- |
| CC(Oc1cc(-c2cccc(C(=O)NCCN3CCOCC3)c2)cnc1N)c1c(Cl)cccc1Cl (centres unmarked) [Example I-390] | µM | = | 0.12 |
| Nc1ncc(-c2cccnc2)cc1OCc1ccc(Cl)cc1 [Example I-497] | µM | = | 14.1 |
| CC(Oc1cc(-c2ccc(NC(=O)N3CCN(C)CC3)cc2)cnc1N)c1c(F)ccc(F)c1Cl (centres unmarked) [Example I-382] | µM | = | 0.082 |
| Nc1ccc(-c2cnc(N)c(OCc3ccccc3)c2)cn1 [Example I-491] | µM | > | 20 |
| CC(Oc1cc(-c2ccc(C(=O)NC3CCN(C)CC3)cc2)cnc1N)c1c(Cl)cccc1Cl (centres unmarked) [Example I-403] | µM | = | 0.062 |
| CC(Oc1cc(OCc2ccncc2)cnc1N)c1c(F)ccc(F)c1Cl (centres unmarked) [Example I-540] | µM | = | 0.8 |
| CC(Oc1cc(-c2ccc(C(=O)N3CC[C@H](N)C3)cc2)cnc1N)c1c(Cl)cccc1Cl (some centres unmarked) [Example I-407] | µM | = | 0.05 |
| CC(Oc1cc(C#CCNC(=O)CN2CCCCC2)cnc1N)c1c(Cl)ccc(F)c1Cl (centres unmarked) [Example I-424] | µM | = | 0.016 |
